Target: furin, P09958;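 note: purified furin at 1:10 enzyme:substrate in 50 mM HEPES pH 7.5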
Sequence (P09958 whole entry): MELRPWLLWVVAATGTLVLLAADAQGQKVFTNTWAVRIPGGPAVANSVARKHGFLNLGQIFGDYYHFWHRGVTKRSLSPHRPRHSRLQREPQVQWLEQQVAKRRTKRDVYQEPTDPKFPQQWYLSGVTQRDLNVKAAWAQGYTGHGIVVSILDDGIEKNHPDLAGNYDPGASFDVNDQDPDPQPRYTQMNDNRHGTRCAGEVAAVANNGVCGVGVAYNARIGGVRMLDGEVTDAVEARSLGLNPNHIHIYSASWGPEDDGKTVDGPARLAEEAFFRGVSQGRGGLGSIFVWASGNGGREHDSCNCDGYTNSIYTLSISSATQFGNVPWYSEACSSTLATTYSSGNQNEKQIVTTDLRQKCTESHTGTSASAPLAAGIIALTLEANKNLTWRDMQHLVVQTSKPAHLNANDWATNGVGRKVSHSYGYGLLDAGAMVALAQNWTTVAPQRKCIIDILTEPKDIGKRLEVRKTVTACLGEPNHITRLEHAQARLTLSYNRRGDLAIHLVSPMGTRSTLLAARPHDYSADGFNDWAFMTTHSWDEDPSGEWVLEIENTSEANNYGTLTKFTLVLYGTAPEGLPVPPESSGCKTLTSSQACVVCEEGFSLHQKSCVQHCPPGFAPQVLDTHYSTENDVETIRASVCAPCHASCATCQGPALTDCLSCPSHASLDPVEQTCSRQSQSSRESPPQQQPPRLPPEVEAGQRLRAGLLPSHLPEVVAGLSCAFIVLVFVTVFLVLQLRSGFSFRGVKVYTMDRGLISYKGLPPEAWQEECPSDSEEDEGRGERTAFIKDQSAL
Test: furin cleavage Z-score vs untreated control; higher = more cleavage, active = 3.5 or more, inactive = 1 or less, 8 variable residues between constant flanks
Conditions: 7.5 min
The list shows a part of the results. The hit rate among all sequences tested is not known here.
Possible outcomes: label 1 (active), label 0 (inactive)

{"Residue codes": "CANVCCSMSYAGNASASA [HC2001]", "Label": "label 0"}
{"Residue codes": "CARIGRAVRPAGNASASA [FS-1720]", "Label": "label 1"}
{"Residue codes": "CAIPFYGKAIAGNASASA [HC847]", "Label": "label 0"}
{"Residue codes": "CACTRGVAKAAGNASASA [HC753]", "Label": "label 0"}
